Where these numbers come from: PubChem BioAssay

# experiment notes: S. cerevisiae RM11-1a growth modifiers, primary screen, strain RM11-1a, OD600, basal, 24 h (AID 1177);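 also: cultures grown under basal conditions with no added stressor; test concentration not given here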
# setup conditions: OD600, 24 h, higher = more signal, called active from +8 up or from −8 down
readout: z-score
Write the value as a bare number.

Incoming: Look up z-score for this compound: Cc1ccc(S[C@]2(C(=O)NCCN3CCOCC3)CC(=O)N(C3Cc4ccccc4C3)[C@@H]2c2ccc(CO)cc2I)cc1
Outgoing: -2.62

New cases:
Incoming: Any idea what z-score was measured for CCN1C(C)=C(C(=O)OC)[C@@H](c2ccccc2)N2C(=O)[C@@]3(C(=O)OC)O[C@@]12[C@@H]1C(=O)N(c2ccccc2)C(=O)[C@@H]13 ?
Outgoing: -0.85

Incoming: Then CC1CC/C=C\[C@H]2OC34C=CCN(Cn5nnc6ccccc65)C(=O)[C@H]3N(C(C)CO)C(=O)[C@@H]4C2C(=O)O1 (stereo not given in full) ?
Outgoing: 0.472

Incoming: And then CCCC[C@H]1OB(O)C[C@H]2C1=C(COC)C[C@H]1C(=O)N(Cc3ccccc3)C(=O)[C@H]12 , what is it?
Outgoing: -1.67

Incoming: Next compound up: C=CC[C@@]1(C(=O)N2CCOCC2)N=C(c2ccc(OCCCO)cc2)O[C@@H]1c1ccccc1
Outgoing: 1.45

Incoming: Now this one: NC(=O)NCC#Cc1ccc2c(c1)[C@]1(C(=O)N2)[C@H](C(N)=O)[C@H]2C(=O)O[C@H](c3ccccc3)[C@H](c3ccccc3)N2[C@@H]1c1ccccc1OCCO
Outgoing: 0.785

Incoming: Now the same for O=C(O)[C@@H]1Cc2c([nH]c3ccccc23)[C@@H](c2ccccc2)N1
Outgoing: -0.19

Incoming: Repeat with CC(=O)NCCCC[C@@H]1NC(=O)[C@@H]2C[C@H](C(=O)NCCCCCCN(C)C)[C@H](c3ccc(O)cc3)N2C1=O
Outgoing: 0.662

Incoming: // query: C=CC[C@]1(C(=O)O)N=C(c2ccc(OCCCO)cc2)O[C@H]1c1ccccc1
Outgoing: 0.344

Incoming: Same lookup for CC(C)C[C@@H]1NC(=O)[C@H](CC(C)C)NC(=O)[C@@]23C(=O)N[C@@H](Cc4ccccc4)C2[C@H](C)[C@@]2(C)O[C@H]2C3/C=C/CC/C=C/CNC1=O (stereo not given in full) , please.
Outgoing: 0.569

Incoming: Request: CCOC(=O)C1=CC[C@@H](c2ccccc2)N(S(=O)(=O)c2ccc(C)cc2)[C@H]1C
Outgoing: 1.43

Incoming: And then CCCC[C@@H]1C[C@H]1[C@@H](NC(=O)c1cccs1)c1ccc(Cl)cc1 , what is it?
Outgoing: 0.595

Incoming: Same again, this time with CO[C@@H]1COC(=O)[C@H](C)NC(=O)CC=C[C@@H](C)[C@H](NS(=O)(=O)c2ccc(C)cc2)COC(=O)CC=C[C@@H]1C
Outgoing: 0.655

Incoming: Repeat for the following compound: O=C1OCCC/C=C\[C@H]2OC34C=CCN(CCN5CCOCC5)C(=O)[C@H]3N(CCCCCO)C(=O)[C@@H]4C12 (stereo not given in full)
Outgoing: -0.634

Incoming: Likewise for COCCOC(=O)N1C(=O)[C@@]2(c3cc(C#CCNC(N)=O)ccc31)[C@H](c1ccc(OCCO)cc1)N1[C@H](c3ccccc3)[C@H](c3ccccc3)OC(=O)[C@H]1[C@@H]2C(=O)Nc1nc2ccccc2s1 ?
Outgoing: 2.46
